Each item that follows carries a reported glycan array binding signal (z-score).
biological target: Neu5Ac(a2-6)Gal(b1-4)GlcNAc(b1-3)Gal(b1-4)GlcNAc(b1-3)Gal(b1-4)GlcNAc; assay: glycan array binding signal (z-score within array); higher = stronger binding; details: glycan notation: IUPAC condensed, linker removed
This is one part of a sample in which the strongest signals are shown more often than they occur.
Experimental endpoint: glycan array binding signal (z-score)

Binder	Val
PhypaEULS3 (Physcomitrella patens) (protein) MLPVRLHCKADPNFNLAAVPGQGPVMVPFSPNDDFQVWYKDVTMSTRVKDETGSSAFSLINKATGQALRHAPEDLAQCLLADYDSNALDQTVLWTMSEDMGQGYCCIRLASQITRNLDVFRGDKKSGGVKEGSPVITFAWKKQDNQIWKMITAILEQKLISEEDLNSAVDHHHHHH	0.398
Gal 7 (Canis lupus) (protein) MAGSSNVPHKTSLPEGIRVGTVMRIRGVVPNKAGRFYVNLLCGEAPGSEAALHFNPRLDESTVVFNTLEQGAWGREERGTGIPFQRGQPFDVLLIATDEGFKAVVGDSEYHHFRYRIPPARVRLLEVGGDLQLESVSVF	3.5
